- Method notes: Saturation mutagenesis of SEQ ID NO:109: dicamba decarboxylation activity of point mutants (CO2 released), fold of backbone (Tables 7, 8, Megatable 1)
- Condition set: decarboxylation activity (CO2 released) of point mutant vs unmutated backbone protein; backbone SEQ ID NO: 109
Measurement type: Fold Activity (fold)
Please reply with the bare figure in fold and do not write the unit itself.

Input: Which measured Fold Activity value corresponds to 28 (protein, listed as Sphingomonas paucimobilis) MARLIATEEAVTFQPVVDALRAHSRTDDASLDMILVRDVYGDEPARPAMIGRLSDVTGERLAEMDSNGVDMHLLSLTAPGVQMFDAETGTRLARIANDLMAQTVAANPTRFAGLGTFAPQDPASAAREIERVATQLRLNGLVINSHTNDLYYDDPFFHPVFEAIEASGLALYIHPRAPSKQIDRAFRDYGMNSAIWGYGIETSTNAVRMILSGLFDRFPRLKIVLGHMGEAIPFWLWRLDYMHGNATTFGGAPKLKLKPSEYFRRNFAITTSGVESHAALRYSIEVLGPENVMWAIDYPYQPMAPAVQFIRTAPIPEDVKAMVAGGNAARIFRIT ?
Output: 1.2

Data origin, for the record: patent US20160040149A1
